# System: P388 leukemia ip, CD2F1 mice, survival T/C
# Measurement notes: NCI In Vivo Anticancer Drug Screen. Data for tumor model P388 Leukemia (intraperitoneal) in CD2F1 (CDF1) mice
# Measurement conditions: endpoint: median survival time; dose: 12.5 mg/kg/injection; schedule: Q01DX005 (ip); vehicle: saline with Tween-80; higher = longer survival
Inconclusive results and toxic doses are left out.
Give measured T/C for each item. Keep answers brief.

# input compound: O=C(c1cccs1)C1NO[N+]([O-])=C1c1cccs1 (centres undefined) ; wanted: its T/C
106 % of control

# input compound: `C(=N\Nc1nnc(-c2ccccc2)c(-c2ccccc2)n1)/c1cccnc1` ; wanted: its T/C
86 % of control

# input compound: `C/C(=N/NC(=S)N1CC2CCC(CC2)C1)c1cnccn1` ; wanted: its T/C
117 % of control

# input compound: `CCCCN(CCCC)CCCNc1nccc2ccccc12` ; wanted: its T/C
103 % of control

# input compound: CCC12CCCN3CCc4c(n(c5ccc(Br)cc45)C(=O)CC1)C32 (centres undefined) ; wanted: its T/C
99 % of control

# input compound: CCCCCCCCCCCC1N=C(N)N=C(N)N1c1cccc(Br)c1 (centres undefined) ; wanted: its T/C
100 % of control

# input compound: CS1=C2C(=O)CC(C)(C)CC2=Nc2ccccc21 (centres undefined) ; wanted: its T/C
104 % of control

# input compound: `Cc1cc(N2CCOCC2)nc(N2CCOCC2)c1C#N` ; wanted: its T/C
108 % of control

# input compound: COc1cc2c(cc1OC)[C@H](c1cc(Br)c(O)c(OC)c1)[C@H]1C(=O)OCC1C2 (some centres undefined) ; wanted: its T/C
87 % of control

# input compound: CN(C)CC1CCc2c(ccc3ccccc23)C1=O (centres undefined) ; wanted: its T/C
100 % of control

# input compound: `Cc1ncc(N)c2c1OC(C)(C)OC2` ; wanted: its T/C
102 % of control

# input compound: `O=C1CN(c2ccccc2)C(=O)CN1/N=C/c1ccc[nH]1` ; wanted: its T/C
100 % of control

# input compound: COc1cc(NCCCCCNC(C)C(C)C)c2ncccc2c1 (centres undefined) ; wanted: its T/C
93 % of control

# input compound: CC1(CBr)C2CCC1C(=O)C2 (centres undefined) ; wanted: its T/C
96 % of control
